Where these numbers come from: patent US20140302063A1

target: A/Brisbane/59/2007 (H1N1-like) inactivated viral preparation (Influenza A virus A/Brisbane/59/2007 (H1N1-like)); assay: ELISA, inactivated virus
readout label: EC50 (µg/mL)
Reply numerically in µg/mL, unit not repeated.

1) R2b-E8 (VHH) VHH: QVQLVESGGGLVQPGGSLRLSCAASGSFFSRYRMGWYRQAPGEQRELVAGITYDDSTNYAGSVKGRFTISRDNAKNTVHLQMNSLKPEDTAVYYCNLNPPGNLYWGQGTQVTVSS: 18.4

Lab note: next binder to report on.
[in] Identify measured EC50 associated with R1a-B6 (VHH) VHH: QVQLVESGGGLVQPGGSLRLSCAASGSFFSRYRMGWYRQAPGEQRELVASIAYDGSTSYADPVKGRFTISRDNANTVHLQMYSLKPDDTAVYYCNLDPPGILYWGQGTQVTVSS
[out] 0.58
